Attribute: drug sensitivity score
# Tested on: Caco-2
# methodDescription: drug sensitivity score (DSS) for viability; higher = more toxic; extreme values may be limits of the assay
# measurementParameters: 72 h

molecule: Clc1ccc(C(OCCN2CCCCC2)c2ccccc2)cc1 (configuration not stated) [cloperastine]
drug sensitivity score: 0.3
--
molecule: COC1CCN(C(=O)c2cc(Cc3n[nH]c(=O)c4ccccc34)ccc2F)CC1 [AZD2461]
drug sensitivity score: 0
--
molecule: NCCc1c[nH]cn1 [histamine]
drug sensitivity score: 0
--
molecule: Cc1cc(N2CCN([C@@H]3CN[C@H](C(=O)N4CCSC4)C3)CC2)n(-c2ccccc2)n1 [teneligliptin]
drug sensitivity score: 0
--
molecule: Cc1noc(C)c1-c1ccc(-c2cc(C(N)=O)c(NC(N)=O)s2)c(O[C@H]2CCNC2)c1 [AZD3264]
drug sensitivity score: 0
--
molecule: O=C(O)[C@H](CC(=O)N1C[C@H]2CCCC[C@H]2C1)Cc1ccccc1 [mitiglinide]
drug sensitivity score: 0
--
molecule: CC(C)(O)CC[C@@H](O)[C@](C)(O)[C@H]1CC[C@@]2(O)C3=CC(=O)[C@@H]4C[C@@H](O)[C@@H](O)C[C@]4(C)[C@H]3CC[C@]12C [20-hydroxyecdysone]
drug sensitivity score: 0
--
molecule: N[C@@H](C(=O)N[C@@H]1C(=O)N2C(C(=O)O)=C(Cl)CS[C@H]12)c1ccccc1 [cefaclor]
drug sensitivity score: 0
--
molecule: CCCN(CCC)C(=O)Cc1c(-c2ccc(Cl)cc2)nc2ccc(Cl)cn12 [alpidem]
drug sensitivity score: 0
--
molecule: NS(=O)(=O)c1cccc2c1c([N+](=O)[O-])cc1nc(O)c(O)nc12 [NBQX]
drug sensitivity score: 0
--
molecule: Cc1cc(-c2nncc3c(C(C)(C)C)c(OCc4ncnn4C)nn23)no1 [MRK-016]
drug sensitivity score: 0
--
molecule: COc1cc(/C=C2\CCC/C(=C\c3ccc(O)c(OC)c3)C2=O)ccc1O [cyclovalone]
drug sensitivity score: 0
--
molecule: C[C@H](CCC(=O)O)[C@H]1CC[C@H]2[C@@H]3[C@@H](O)C[C@@H]4C[C@H](O)CC[C@]4(C)[C@H]3CC[C@]12C [ursodiol]
drug sensitivity score: 0.95
--
molecule: CCOC(=O)[C@H](C)C[C@@H](Cc1ccc(-c2ccccc2)cc1)NC(=O)CCC(=O)O [sacubitril]
drug sensitivity score: 0
--
molecule: OC(CCN1CCCCC1)(c1ccccc1)C1CCCCC1 (configuration not stated) [trihexyphenidyl]
drug sensitivity score: 1.7
--
molecule: Cc1ccc(-c2nn(C(C)(C)C)c3ncnc(N)c23)cc1 [PP-1]
drug sensitivity score: 3.4
--
molecule: COc1cccc(C=NCCN=Cc2cccc(OC)c2[O-])c1[O-].[Cl-].[Mn+3] [EUK-134]
drug sensitivity score: 0

---

Attribute: cell viability
# Test system: Vero E6
# methodDescription: cell viability relative to DMSO; higher = less toxic
# measurementParameters: 72 h; 10000 nM
measuredEndpoint: cell viability (%)

compound: CC(=O)N(C)c1cc(-c2ccnc3c(C(=O)c4cccs4)cnn23)ccc1F
assayedTarget: Vero E6
unitsText: %
reportedValue: 91
--
compound: CS(=O)(=O)CCNCc1nc(-c2ccc3ncnc(Nc4ccc(OCc5cccc(F)c5)c(Cl)c4)c3c2)cs1
assayedTarget: Vero E6
unitsText: %
reportedValue: 72.5
--
compound: CC(C)(Sc1ccc(CCN(CCCCC2CCCCC2)C(=O)NC2CCCCC2)cc1)C(=O)O
assayedTarget: Vero E6
unitsText: %
reportedValue: 110
--
compound: N#Cc1c(N(CC(=O)O)CC(=O)O)sc(C(=O)O)c1CC(=O)O [Strontium Ranelate]
assayedTarget: Vero E6
unitsText: %
reportedValue: 99.8
--
compound: CC[N+](C)(CC)CCOC(=O)C1c2ccccc2Oc2ccccc21
assayedTarget: Vero E6
unitsText: %
reportedValue: 93.8
--
compound: C[C@H](Nc1cc2c(-c3ccc4c(c3)OCO4)noc2cn1)c1ccccc1
assayedTarget: Vero E6
unitsText: %
reportedValue: 108
--
compound: O=C1CCC[C@@H]2[C@H]3CCC[N+]4([O-])CCC[C@@H](CN12)[C@@H]34 (stereo not given in full)
assayedTarget: Vero E6
unitsText: %
reportedValue: 104
--
compound: OCCc1ccc(OCCn2ccnc2)cc1
assayedTarget: Vero E6
unitsText: %
reportedValue: 107
--
compound: NC(=O)NO [hydroxyurea]
assayedTarget: Vero E6
unitsText: %
reportedValue: 112
--
compound: C[C@@]1(CO)[C@H](O)CC[C@@]2(C)[C@H]1CC[C@H]1C[C@@H]3C[C@@]12CC[C@]3(O)CO
assayedTarget: Vero E6
unitsText: %
reportedValue: 35.8
--
compound: Cc1ccc(-c2nn(C(C)(C)C)c3ncnc(N)c23)cc1
assayedTarget: Vero E6
unitsText: %
reportedValue: 48.7
--
compound: CNC(=S)C1(c2ccccn2)CCCS1 (stereo not given) [picartamide]
assayedTarget: Vero E6
unitsText: %
reportedValue: 93.7
--
compound: Cc1cc(CN)cc(C)c1NC(=O)c1ccc(-c2cc(Cl)ccc2Cl)o1
assayedTarget: Vero E6
unitsText: %
reportedValue: 96.8
--
compound: CN(C)C(=N)NC(=N)N
assayedTarget: Vero E6
unitsText: %
reportedValue: 102
--
compound: COC1CCN(C(=O)c2cc(Cc3n[nH]c(=O)c4ccccc34)ccc2F)CC1
assayedTarget: Vero E6
unitsText: %
reportedValue: 99.9
--
compound: COc1ccc(CC2NCCc3c2[nH]c2ccc(C)cc32)c(Cl)c1OC (stereo not given)
assayedTarget: Vero E6
unitsText: %
reportedValue: 76.5
--
compound: CS(=O)(=O)OCOS(C)(=O)=O
assayedTarget: Vero E6
unitsText: %
reportedValue: 101
--
compound: CCCC(C)NC(=O)c1ccc(Cl)c(Cl)c1 (stereo not given)
assayedTarget: Vero E6
unitsText: %
reportedValue: 99.8
--
compound: CCCC(C)C1(CC)C(=O)NC(=S)NC1=O (stereo not given)
assayedTarget: Vero E6
unitsText: %
reportedValue: 95.1
--
compound: NS(=O)(=O)c1cccc2c1c([N+](=O)[O-])cc1nc(O)c(O)nc12
assayedTarget: Vero E6
unitsText: %
reportedValue: 99.8
